# assayed-target: Tlp10^LBD wild type (Campylobacter jejuni, UniProt Q0PCA6)
# method-notes: biochemical
# Assay type: binding
# particulars: SPR, wild-type Tlp10^LBD, mean ± SD, n = 3
assay-readout: pKd
Kindly note that pKd refers to -log10 of the concentration in mol/L and answer with the value alone.

Input line: Checklist item: pKd tested on Tlp10^LBD wild type (Campylobacter jejuni, UniProt Q0PCA6), entry O=C(O)CCC(=O)C(=O)O [α-ketoglutarate] , value?
Output line: 3.39

----------
# assayed-target: Tlp10^LBD wild type (Campylobacter jejuni)
# method-notes: biochemical
# Assay type: binding
# particulars: KD Tlp10^LBD Wild-type, SPR, Table 2, mean ± s.d., n = 3
As shown below, each of these molecules has a reported pKd value.
Recall that pKd is obtained by taking minus log10 of the concentration measured in molar.

Recorded pKd, per entry:
| molecule | assayed-target | pKd |
| --- | --- | --- |
| Cc1ncc(C[n+]2csc(CCO)c2C)c(N)n1 | Tlp10^LBD wild type (Campylobacter jejuni) | 4.23 |
| CC[C@H](C)[C@H](N)C(=O)O | Tlp10^LBD wild type (Campylobacter jejuni) | 4.42 |

# context switch: different molecule, same pKd
Input line: Which value of pKd has been reported for N[C@@H](CC(=O)O)C(=O)O [aspartate] in the records?
Output line: 4.49

----------
# assayed-target: UniProt Q0PCA6
# Assay type: binding
# particulars: competition SPR, compounds at 10x KD
assay-readout: ligand-binding site on Tlp10^LBD

# count of solved cases: 5
| molecule | result |
| --- | --- |
| CC(=O)N[C@H]1[C@H]([C@H](O)[C@H](O)CO)OC(O)(C(=O)O)C[C@@H]1O (some centres unmarked) | site B |
| O=C[C@H](O)[C@@H](O)[C@@H](O)[C@H](O)CO | site B |
| c1ncc2nc[nH]c2n1 | site A |
| N=C(N)NCCC[C@H](N)C(=O)O | site A |
| O=C(O)CC(O)C(=O)O (centres unmarked) [malate] | site B |

Input line: For OC[C@H]1OC(O)[C@@H](O)[C@@H](O)[C@@H]1O (some centres unmarked) , what is its reported ligand-binding site on Tlp10^LBD?
Output line: site B

Input line: # iterate: C[C@H](O)[C@@H](O)[C@@H](O)[C@H](O)C=O
Output line: site B

Input line: Queued: CC[C@H](C)[C@H](N)C(=O)O
Output line: site A

Input line: Here is the next molecule: O=C(O)CCC(=O)C(=O)O [α-ketoglutarate]
Output line: site A

----------
# assayed-target: Tlp10^LBD wild type (Campylobacter jejuni)
# method-notes: biochemical
# Assay type: binding
# particulars: KD, SPR, wild-type Tlp10^LBD, mean ± SD, n = 3
# Kd annotations
State the answer as a number, implicitly in µM.

| compound | assayed-target | Kd / µM |
| --- | --- | --- |
| Cc1ncc(C[n+]2csc(CCO)c2C)c(N)n1 [thiamine] | Tlp10^LBD wild type (Campylobacter jejuni) | 59.4 |
| CC(=O)N[C@H]1[C@H]([C@H](O)[C@H](O)CO)OC(O)(C(=O)O)C[C@@H]1O (stereo partly drawn) [sialic acid] | Tlp10^LBD wild type (Campylobacter jejuni) | 29.3 |
| N[C@@H](CC(=O)O)C(=O)O [aspartate] | Tlp10^LBD wild type (Campylobacter jejuni) | 32.3 |
| OC[C@H]1OC(O)[C@@H](O)[C@@H](O)[C@@H]1O (stereo partly drawn) [mannose] | Tlp10^LBD wild type (Campylobacter jejuni) | 39.6 |
| c1ncc2nc[nH]c2n1 [purine] | Tlp10^LBD wild type (Campylobacter jejuni) | 21 |

Input line: # lookup: Kd of CC[C@H](C)[C@H](N)C(=O)O [isoleucine]
Output line: 37.9

Input line: Also, O=C(O)CC(O)C(=O)O (stereo not drawn) [malate] please.
Output line: 168

Input line: Next compound: N=C(N)NCCC[C@H](N)C(=O)O [arginine]
Output line: 27.9

Input line: Follow-up entry: C[C@H](O)[C@@H](O)[C@@H](O)[C@H](O)C=O [fucose]
Output line: 30
